The reported measurements were obtained from patent US8513234B2.

# key: entry, value: Number of fold shift in IC50 versus wild type IIIB, G140S/Q148H
- Tested on: virus containing G140S/Q148H mutation in the integrase gene
- experimental setup: k = IC50(mutant)/IC50(wild type)
measurement kind: Number of fold shift in IC50 versus wild type IIIB, G140S/Q148H

CO[C@@]1(C)CC[C@H](N(C)C(=O)C(=O)N(C)C)c2nc(C(=O)NCc3ccc(F)c(C)c3)c(O)c(=O)n2C1 : 190
COC1(C)CCC(N(C)C(=O)C(=O)N(C)C)c2nc(C(=O)NCc3ccc(F)c(C)c3)c(O)c(=O)n2C1 (single isomer, unassigned) [Compound 2C] : 68
COC1(C)CCC(N(C)C(=O)C(=O)N(C)C)c2nc(C(=O)NCc3ccc(F)c(C)c3)c(O)c(=O)n2C1 (single isomer, unassigned) [Compound 2D] : 4
CCN(C(=O)C(=O)N(C)C)[C@@H]1CC[C@H](OC)Cn2c1nc(C(=O)NCc1ccc(F)cc1)c(O)c2=O : 2
